biological target: Ribosomal protein S6 kinase alpha-6 (Homo sapiens); details: at 1 µM;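 note: each value is a mean inhibition of RSK4 from a GSK PKIS panel screen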
Assignment: determine reported inhibition for the given molecules.
# output: number + unit

O=C1NC(=O)C(c2cccc(Cl)c2)=C1Nc1ccc(Cl)c(C(=O)O)c1    3.09%
Fc1ccc(-c2ncn(C3CCNCC3)c2-c2ccnc(Oc3ccc(F)c(F)c3)n2)cc1    -0.02%
O=C(NCC1CC1)c1ccc(-c2cccc(C(=O)NC3CC3)c2)cc1    0.61%
C/C(Nc1ccc(S(N)(=O)=O)cc1)=C1/C(=O)Nc2ccccc21    20.7%
CN(C)CCOc1ccc(-c2cc(-c3ccc4c(c3)CCC4=NO)c(-c3ccncc3)o2)cc1    -1.99%

// each listed molecule needs a value for inhibition
1. C#Cc1cccc(Nc2ncnc3ccc(OCCCCNCCS(C)(=O)=O)cc23)c1
2. CN(c1ccc(NC(=O)Nc2c(Cl)cccc2Cl)cc1)c1ccnc(Nc2cccc(CS(C)(=O)=O)c2)n1
3. COc1ccc2ncn(-c3cc(O[C@H](C)c4ccccc4Cl)c(C(N)=O)s3)c2c1

Response:
1. 3.55%
2. 1.06%
3. 3.6%
